Ref: the supplement of paper PMC8967900

Entries and their selective drug sensitivity score values follow.
Test system: 380
test details: selective drug sensitivity score (sDSS, relative to normal bone marrow) (sDSS (score)); higher = more potent and effective on the cell line relative to normal bone marrow cells;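 note: ALL cell lines in 384-well plates, five doses spanning 10,000-fold, each plate scaled between vehicle and 100 µmol/L benzalkonium chloride controls, sDSS an adapted area-under-curve metric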
reported conditions: 72 h

compound: COC[C@H](NC(=O)c1cnc(C)s1)C(=O)N[C@@H](COC)C(=O)N[C@@H](Cc1ccccc1)C(=O)[C@@]1(C)CO1 [Oprozomib] (top concentration 2500 nM)
selective drug sensitivity score: 0.3
//
compound: COc1cc2c(Oc3ccc(NC(=O)C4(C(=O)Nc5ccc(F)cc5)CC4)cc3F)ccnc2cc1OCCCN1CCOCC1 [Foretinib] (top concentration 1000 nM)
selective drug sensitivity score: -0.56
//
compound: CC(C)Cn1cnc2c(N)nc3ccccc3c21 [Imiquimod] (top concentration 2500 nM)
selective drug sensitivity score: 9
//
compound: CCc1cc2c(cc1N1CCC(N3CCOCC3)CC1)C(C)(C)c1[nH]c3cc(C#N)ccc3c1C2=O [Alectinib] (top concentration 1000 nM)
selective drug sensitivity score: 0.38
//
compound: CCN1C(=O)CNc2ncc(-c3ccc(-c4nc[nH]n4)nc3C)nc21 [CC-115] (top concentration 10000 nM)
selective drug sensitivity score: 10.6
//
compound: Nc1nc(F)nc2c1ncn2[C@@H]1O[C@H](CO)[C@@H](O)[C@@H]1O [Fludarabine] (top concentration 10000 nM)
selective drug sensitivity score: 6.9

----------
Entries and their selective drug sensitivity score values follow.
Tested on: CCRF-HSB2
test details: selective drug sensitivity score (sDSS, relative to normal bone marrow) (sDSS (score)); higher = more potent and effective on the cell line relative to normal bone marrow cells
reported conditions: 72 h

compound: COc1cc(Br)c(Nc2nc(-c3c(C)nc4ncccn34)cs2)c(Br)c1 [PTC-209] (top concentration 10000 nM)
selective drug sensitivity score: 0.72
//
compound: CN(C)CCOc1ccc(/C(=C(/CCCl)c2ccccc2)c2ccccc2)cc1 [Toremifene] (top concentration 10000 nM)
selective drug sensitivity score: 1.48
//
compound: CC1=NN(c2ccc(C(=O)O)cc2)C(=O)C1=Cc1ccc(-c2cc(C)c(C)cc2[N+](=O)[O-])o1 [C646] (top concentration 25000 nM)
selective drug sensitivity score: 3.14
//
compound: CCOCc1nc2c(N)nc3ccccc3c2n1CC(C)(C)O [Resiquimod] (top concentration 10000 nM)
selective drug sensitivity score: -4.92
//
compound: NC(=O)c1cccc(-c2cccc(OC(=O)NC3CCCCC3)c2)c1 [URB597] (top concentration 1000 nM)
selective drug sensitivity score: -0.46
//
compound: Cc1ccc(C(=O)N(CCCN)[C@@H](c2oc3cc(Cl)ccc3c(=O)c2Cc2ccccc2)C(C)C)cc1 (top concentration 100 nM)
selective drug sensitivity score: 9.56
//
compound: COCCOc1cnc2ccn([C@H](C)c3nnc4c(F)cc(-c5cnn(C)c5)cn34)c(=O)c2c1 [AMG-337] (top concentration 10000 nM)
selective drug sensitivity score: -0.06
//
compound: CC/C(=C(\c1ccccc1)c1ccc(OCCN(C)C)cc1)c1ccccc1 [Tamoxifen] (top concentration 10000 nM)
selective drug sensitivity score: 0.92
//
compound: O=C(CCCCCCC(=O)Nc1ccc([C@H]2O[C@@H](CSc3nc(-c4ccccc4)c(-c4ccccc4)o3)C[C@@H](c3ccc(CO)cc3)O2)cc1)NO [Tubacin] (top concentration 10000 nM)
selective drug sensitivity score: 15.8
//
compound: COc1cccc2c1C(=O)c1c(O)c3c(c(O)c1C2=O)C[C@@](O)(C(=O)CO)C[C@@H]3O[C@H]1C[C@H](N)[C@H](O)[C@H](C)O1 [Doxorubicin] (top concentration 1000 nM)
selective drug sensitivity score: 14.4
//
compound: CCCCc1nc2cc(/C=C/C(=O)NO)ccc2n1CCN(CC)CC [Pracinostat] (top concentration 10000 nM)
selective drug sensitivity score: 5.88
//
compound: COc1cc2c(N3CCN(C(=O)Nc4ccc(OC(C)C)cc4)CC3)ncnc2cc1OCCCN1CCCCC1 [Tandutinib] (top concentration 1000 nM)
selective drug sensitivity score: 0
//
compound: CN1CCC(COc2cnc(-c3cccc(Cn4nc(-c5cccc(C#N)c5)ccc4=O)c3)nc2)CC1 [Tepotinib] (top concentration 1000 nM)
selective drug sensitivity score: 0.02

----------
Entries and their selective drug sensitivity score values follow.
Tested on: RPMI-8402
test details: selective drug sensitivity score (sDSS, relative to normal bone marrow) (sDSS (score)); higher = more potent and effective on the cell line relative to normal bone marrow cells
reported conditions: 72 h
readout type: selective drug sensitivity score

compound: Cn1ncc(Cl)c1-c1cc(C(=O)N[C@H](CN)Cc2cccc(F)c2)sc1Cl [Afuresertib] (top concentration 1000 nM)
readout type: selective drug sensitivity score
measured: 1.16
--
compound: C/C(=C\c1csc(C)n1)[C@@H]1C[C@@H]2O[C@]2(C)CCC[C@H](C)[C@H](O)[C@@H](C)C(=O)C(C)(C)[C@@H](O)CC(=O)N1 [Ixabepilone] (top concentration 1000 nM)
readout type: selective drug sensitivity score
measured: 2.78
--
compound: COc1ccc(S(=O)(=O)Nc2cccnc2Nc2ccc(O)cc2)cc1 [ABT-751] (top concentration 10000 nM)
readout type: selective drug sensitivity score
measured: 11.9

----------
Entries and their selective drug sensitivity score values follow.
Tested on: REH
test details: selective drug sensitivity score (sDSS, relative to normal bone marrow) (sDSS (score)); higher = more potent and effective on the cell line relative to normal bone marrow cells
reported conditions: 72 h
readout type: selective drug sensitivity score

molecule: O=C(Nc1cccnc1)N1CCC(Cc2cccc(Oc3ccc(C(F)(F)F)cn3)c2)CC1 [PF-3845] (top concentration 10000 nM)
assayed target: REH
readout type: selective drug sensitivity score
measured: 2.96

molecule: CC(=O)Nc1cccc(-n2c(=O)n(C3CC3)c(=O)c3c(Nc4ccc(I)cc4F)n(C)c(=O)c(C)c32)c1 [Trametinib] (top concentration 250 nM)
assayed target: REH
readout type: selective drug sensitivity score
measured: -8.04

molecule: Cc1sc2c(c1C)C(c1ccc(Cl)cc1)=N[C@@H](CC(=O)Nc1ccc(O)cc1)c1nnc(C)n1-2 [Birabresib] (top concentration 10000 nM)
assayed target: REH
readout type: selective drug sensitivity score
measured: -3.18

----------
Entries and their selective drug sensitivity score values follow.
System: 697
test details: selective drug sensitivity score (sDSS, relative to normal bone marrow) (sDSS (score)); higher = more potent and effective on the cell line relative to normal bone marrow cells
reported conditions: 72 h

compound: Cc1nc(C(=O)NCC(=O)O)c(O)c2ccc(Oc3ccccc3)cc12 [Roxadustat] (top concentration 10000 nM)
selective drug sensitivity score: -0.92
--
compound: Nc1ncnc2c1c(COc1cccc(Cl)c1)nn2C1CCOCC1 (top concentration 10000 nM)
selective drug sensitivity score: 0.26
--
compound: COc1cc2c(Oc3ccc4[nH]c(C)cc4c3F)ncnc2cc1OCCCN1CCCC1 [Cediranib] (top concentration 1000 nM)
selective drug sensitivity score: 0.9
--
compound: CN[C@@H](C)C(=O)N[C@H]1CN(C(=O)CC(C)C)CC[C@H]2CC[C@@H](C(=O)NC(c3ccccc3)c3ccccc3)N2C1=O [AT-406] (top concentration 10000 nM)
selective drug sensitivity score: -1.26
--
compound: NS(=O)(=O)OC[C@@H]1C[C@@H](n2ccc3c(N[C@H]4CCc5ccccc54)ncnc32)C[C@@H]1O [Pevonedistat] (top concentration 10000 nM)
selective drug sensitivity score: 13.1
--
compound: CC[C@H](C)C(=O)O[C@H]1C[C@H](O)C=C2C=C[C@H](C)[C@H](CC[C@@H](O)C[C@@H](O)CC(=O)O)[C@H]21 [Pravastatin] (top concentration 10000 nM)
selective drug sensitivity score: -0.66

----------
System: ALL-SIL
test details: selective drug sensitivity score (sDSS, relative to normal bone marrow) (sDSS (score)); higher = more potent and effective on the cell line relative to normal bone marrow cells
reported conditions: 72 h
readout type: selective drug sensitivity score

molecule: Cc1cnc(NC(=O)Nc2cc(Br)c(C)cc2OC[C@@H]2CNCCO2)cn1 [Rabusertib] (top concentration 1000 nM)
measured: -0.74
--
molecule: Nc1nc2cc(-c3ccc4ncc(C(=O)N5CCOCC5)n4c3)ccc2o1 [Serabelisib] (top concentration 10000 nM)
measured: 0.36
--
molecule: O=C(Nc1cc(Oc2cc(F)c(NC(=O)C3(C(=O)Nc4ccc(F)cc4)CC3)cc2F)ccn1)C1CC1 [Altiratinib] (top concentration 10000 nM)
measured: 13.9
--
molecule: CCN(CC)CCN(Cc1ccc(-c2ccc(C(F)(F)F)cc2)cc1)C(=O)Cn1c(SCc2ccc(F)cc2)nc(=O)c2c1CCC2 [Darapladib] (top concentration 1000 nM)
measured: -1.42
--
molecule: COc1cc(Br)c(Nc2nc(-c3c(C)nc4ncccn34)cs2)c(Br)c1 [PTC-209] (top concentration 10000 nM)
measured: 0.42
--
molecule: CCc1cnn2c(NCc3ccc[n+]([O-])c3)cc(N3CCCC[C@H]3CCO)nc12 [Dinaciclib] (top concentration 1000 nM)
measured: -1.74
